Origin of measurements: ChEMBL document CHEMBL2029225

assay: Selectivity ratio of EC50 for human HEK293 cells to EC50 for bloodstream form of Trypanosoma brucei brucei 427 (BS221); assay type: ADME, cell-based; details: read-out: Ratio EC50

Chemical smiles	Op	selectivity ratio
CCCC[n+]1cccc(CCCCCCCCCCCCCI)c1	>	1000
COc1ccc(C[n+]2cccc(CCCCCCCCCCCCCO)c2)cc1	=	437
CCCC[n+]1cccc(CCCCCCCCCCCCCO)c1	=	299
C[n+]1cccc(CCCCCCCCCCCCCI)c1	=	540

----------
system: Plasmodium falciparum; test: Antiplasmodial activity against Plasmodium falciparum 3D7 assessed as inhibition of [3H]hypoxanthine incorporation after 18 hrs by liquid scintillation counting; type: functional, organism-based

Molecule	EC50 (µM)
CCN(CC)CCCC(C)Nc1ccnc2cc(Cl)ccc12 (centres undefined)	0.00067
CCCC[n+]1cccc(CCCCCCCCCCCCCI)c1	0.31
C[n+]1cccc(CCCCCCCCCCCCCI)c1	0.26
OCCCCCCCCCCCCCc1ccc[n+](CCCCCCCCCCCCCc2ccc[n+](CCCCCCCCCCCCCc3cccnc3)c2)c1	0.068
OCCCCCCCCCCCCCc1ccc[n+](CCCCCCCCCCCCCc2ccc[n+](CCCCCCCCCCCCCc3ccc[n+](CCCCCCCCCCCCCc4cccnc4)c3)c2)c1	0.16
c1cc2c[n+](c1)CCCCCCCCCCCCCc1ccc[n+](c1)CCCCCCCCCCCCCc1ccc[n+](c1)CCCCCCCCCCCCCc1ccc[n+](c1)CCCCCCCCCCCCC2	0.19
CCCC[n+]1cccc(CCCCCCCCCCCCCO)c1	0.51
COc1ccc(C[n+]2cccc(CCCCCCCCCCCCCO)c2)cc1	0.24
OCCCCCCCCCCCCCc1ccc[n+](CCCCCCCCCCCCCc2cccnc2)c1	0.14
